- Tested on: HSV-1
- experiment.description: Plaque reduction assay, HSV-1 clinical isolates on Vero cells
- Assay type: cell-based
- condition.parameters: Human alphaherpesvirus 1, Vero, isolate HPG033, HSV-1 TK I358L (1072A>C); also TK T287M; read-out: Drug susceptibility Foscarnet (FOS)
reported.property: IC50

• O=C(O)P(=O)(O)O = < 250 µM

====

- System: HSV-2
- experiment.description: Plaque reduction assay, HSV-2 clinical isolates on Vero cells
- Assay type: cell-based
- condition.parameters: Human alphaherpesvirus 2, Vero, isolate HPG058, HSV-2 TK 183stop or P154fs (458delC, 459delC, 460delC, or 461delC); read-out: Drug susceptibility Foscarnet (FOS)
reported.property: IC50

• O=C(O)P(=O)(O)O = < 250 µM
